I'd be grateful if you could share measured z-score for these entries.
experiment: Components of the Cytosolic LPS Sensing Pathway: Gene Identification via Genome-wide siRNA Screen; settings: RAW264.7 macrophages, IL-1a HTRF, actives lie on both sides, screened at 100 nM (by protocol), cells primed 5 h with Pam3CSK4 first;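 further: robust z of the log signal after scaling to non-targeting control siRNA wells of the plate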
The campaign covered roughly 53,000 sequences. About 3,700 (7%) were called active. This is one part of a sample in which actives are shown more often than they occur.
Just the number.

Reported z-score ( GGAAAGUCAGGAUGAAUAUTT against Cst9 ) = 0.0511

Reported z-score ( GGAGCAUUGCUCUUCUUCATT against Get4 ) = -0.073

Reported z-score ( GGCCCAUCCCACAAUGAUATT against Atg9b ) = -0.998

Reported z-score ( GGAGGAUGACAAAAUCUAUTT against Rnf113a2 ) = 1.25

Reported z-score ( GGAAGGAAAUGUGUGAAAUTT against 4930555G01Rik ) = -0.194

Reported z-score ( GGUCUACGUAGAGGAGCUGTT against Mrpl28 ) = 1.04

Reported z-score ( GGAUUCUGAGUGUACGUUUTT against Zfp28 ) = 0.0227

Reported z-score ( GGAUAACCGCCAAUAAAAATT against Msantd3 ) = 0.255

Reported z-score ( GGUUCAGAUCCCUAAAAUATT against Ago4 ) = -0.557

Reported z-score ( GGGCCAAAUUUGAAUCCCUTT against Rcan1 ) = -2.09

Reported z-score ( GGCGUAAAAUUCAAACUCATT against Cr2 ) = 1.02

Reported z-score ( GGUCAGAGAAAUGAUGUCUTT against Osbpl11 ) = -1.77

Reported z-score ( CCUUUAAAAGUACCAACCCTT against B9d1 ) = 0.679

Reported z-score ( GCCACUAUUGAAGCUUGCCTT against Olfr1209 ) = 1.32

Reported z-score ( GGGUGAAUUCUGUCUAUGUTT against Far1 ) = 0.0586

Reported z-score ( GCUGUUAAAACUCUCGUUATT against Pdk3 ) = 2.02

Reported z-score ( GGUCAGCAUUUGCUAUGAATT against Tmsb15l ) = -2.02

Reported z-score ( CCUACUCGUAUAAUCUUCUTT against Ago3 ) = 0.496

Reported z-score ( GGUUAAGUCCCUAGGACAUTT against Blzf1 ) = 0.998

Reported z-score ( GGAGGACAUGGACACAGUCTT against Slc39a7 ) = -0.805

Reported z-score ( GGCUUGCAUAUCUAUUGGATT against Map2k6 ) = 2.61

Reported z-score ( GGACUGAAGGAUGCCUCAATT against Cngb1 ) = 0.78

Reported z-score ( GGAGGUGAAAGGCAAAACUTT against Poldip2 ) = -0.122

Reported z-score ( GGAGUUAAACAAACAGAGUTT against Psma6 ) = -0.855

Reported z-score ( GCACUGAACUUUCCUGACCTT against Ppdpf ) = 1.78

Reported z-score ( GGUUGAAAAGUAUCAAAGATT against Pus7l ) = -0.359

Reported z-score ( GGCAAGCACAAUGAUCAUUTT against Trappc11 ) = -2.36

Reported z-score ( GGAAAACCAACAAAGCAAATT against Pde10a ) = -0.692

Reported z-score ( GCGCAAUAAUCAGACGGUUTT against Zhx2 ) = -0.624

Reported z-score ( GGAGUCACACCUGAAUUGCTT against Cep89 ) = 0.129

Reported z-score ( GCACCCAAACUUAAAAUAGTT against Spink10 ) = -0.69

Reported z-score ( ACUUCGUAAAAGAGCACAATT against Platr25 ) = 1.02

Reported z-score ( CCAAACUUUUGUGGAACAGTT against Galnt9 ) = 0.0294

Reported z-score ( GCACCAGUCGGUAUUCACATT against C1qc ) = -0.665

Reported z-score ( CCAUUUAAGUGUGUGUUAATT against Rbmx ) = 0.475

Reported z-score ( GCUAAGUUCCAAGGCGACCTT against Serpinh1 ) = 2.77

Reported z-score ( GGAGGACCAUUGUAAGUAGTT against 9930022D16Rik ) = 2.17

Reported z-score ( CCAUGGGCCUACCAAACAGTT against Celf2 ) = -1.86

Reported z-score ( GCCGUAGAUUUCCUUGAGUTT against Isca1 ) = -0.0435

Reported z-score ( CCCAUUAGAUGCUGAAUAUTT against Stmn1 ) = 0.139

Reported z-score ( GGAUACAAUCAUCGCCAUCTT against Olfr101 ) = 1.3

Reported z-score ( CCUACUCGUCUCUUUCACCTT against Tlcd1 ) = 0.158

Reported z-score ( GAGAGAGGGAAUUUGCUCCTT against Pcdhb8 ) = 2.6

Reported z-score ( GCCAUUAAUCUCACAUGUATT against Crebrf ) = 1.39

Reported z-score ( GCUCCUGAACUAAUACAAGTT against Melk ) = 5

Reported z-score ( CCACGCUACCUUCAAGAGATT against Clec14a ) = 0.946

Reported z-score ( GGAAACACGUCUCCUCCAUTT against Krt87 ) = 1.26

Reported z-score ( GGAUCCUUUGGUUAUAAGATT against Nav1 ) = -1.28

Reported z-score ( GGUUAUGGUUUUGUUGACUTT against Rbms1 ) = -0.606

Reported z-score ( GGCCUGUUUUGAAGUAGAATT against B630019K06Rik ) = 0.352

The measured values listed here are drawn from PubChem BioAssay AID1508600.
